SYSTEM_NAME: T1, yeast small ubiquitin-like modifier protein (yeast, UniProt Q12306 3-98 = SUMO)
T1 construct: GST fusion in most phage ELISAs, His-tagged or tag-cleaved elsewhere; also called ySUMO; yeast SUMO
METHOD_NOTES: SPR; column 'Estimated Kd (nM)' [Continued]
Listing: Kd of selected binders
State the answer as a number, implicitly in nM.

// query Identify the reported Kd for the following entry. ySMB-64 (designed binder, variable loops only; library YSGW) VSSVPTKLEVVAATPTSLLISWDASQFSGVSYYRITYGETGGNSPVQEFTVPGSYSTATISGLSPGVDYTITVYAYYHEHWGYYSYSPISINYRT
// result 280

// query For the binder ySMB-69 (designed binder, variable loops only; library YSGW) VSSVPTKLEVVAATPTSLLISWDASSSSVSYYRITYGETGGNSPVQEFTVPGSSSTATISGLSPGVDYTITVYAYYSTYWYDWSGSPISINYRT , give its reported Kd.
// result 138

// query Respond only with Kd recorded for ySMB-71 (designed binder, variable loops only; library YSGW) VSSVPTKLEVVAATPTSLLISWDASSSSVSYYRITYGETGGNSPVQEFTVPGSSSTATISGLSPGVDYTITVYAYYVGDGYYWSESPISINYRT
// result 230
